- procedure_details: amyloid nucleation score (Sup35N fusion, yeast selection) (log enrichment); library NNK1; higher = more nucleation; inactive = no reads after selection;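 further: zero at mode of non-aggregating sequences after 7 days selection at 30°C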
Class YES: amyloid nucleation score at least 0.9. Class NO: amyloid nucleation score below 0.9.

# check: amyloid nucleation score of SSSSYIYCYFFPQSMVMVFS is greater than or equal to 0.9
YES

Could you verify whether the entry WTLRYRSARLVACMINTDEM shows amyloid nucleation score of no less than 0.9?
YES

Could you please find out whether SAPMVFESDPREFAAGMSRL has amyloid nucleation score that meets 0.9 or exceeds it?
NO

Test whether the substance RLTLLRLVLV records amyloid nucleation score of 0.9 or higher.
YES

Is amyloid nucleation score at least 0.9? Consider HERFLRIQRVHREKKCKVCL
NO

Can CILAGGSSVGLNCVGMSTCG be said to have amyloid nucleation score at or above 0.9?
NO

Check the entry VGVYGRYIV : does amyloid nucleation score equal or exceed 0.9?
NO

Does CFSDKS have a reported amyloid nucleation score of at least 0.9?
NO

Textbook exercise: given the entry IMTSWFLPQSCQNDWDKLY , state whether its amyloid nucleation score is greater than or equal to 0.9.
NO

Quick check, amyloid nucleation score >= 0.9? SNTTIFFSFNRVPTISLNHS
YES

Does the substance FTALPSTVVIVQHTLHLDSF have recorded amyloid nucleation score that is 0.9 or more?
YES

Form field: amyloid nucleation score at least 0.9? Entry: STNIFSYATLSGFYTVTMIR
NO

Please tell me: is the substance LGESTGIFFYGEIRPYLNGS at or over 0.9 in terms of amyloid nucleation score?
NO

Is the recorded value of amyloid nucleation score equal to or greater than 0.9 for this substance? LIGHRSRS
NO

###

- procedure_details: amyloid nucleation score (Sup35N fusion, yeast selection) (log enrichment); library NNK1; higher = more nucleation; inactive = no reads after selection
Returns one of 1 (yes) or 0 (no); 1 (yes) when amyloid nucleation score is >= -0.3.

Textbook exercise: given the entry YFFFYYYVVTIRKLLHVMGT , state whether its amyloid nucleation score is greater than or equal to -0.3.
0 (no)

# check: amyloid nucleation score of VEKRKTFRLGAFGEVRVICS is greater than or equal to -0.3
1 (yes)

Evaluate FKVTFNRDVPNESSTALCSV : amyloid nucleation score at minimum -0.3?
0 (no)

Reported amyloid nucleation score reaches at least -0.3 for SAYSILSTMFIYFVKSQGTD ?
1 (yes)

State whether the measured amyloid nucleation score reaches -0.3, counting equality as reaching it, for RTKCKASISNIPTRWYDP
0 (no)

Is it the case that VLHCCNAESWLGGWPLGVKN has amyloid nucleation score reaching or exceeding -0.3?
1 (yes)

Decide: is the reported value of amyloid nucleation score for SYCFFYDDMRTWWFYS equal to or greater than -0.3?
1 (yes)

Given the entry PRFKTMVVTHFLSFNFYGWN , answer whether its amyloid nucleation score meets or surpasses -0.3.
0 (no)

Please check the record STILKWRSWLARFLIHMVVV and state if its amyloid nucleation score is at or above -0.3.
1 (yes)

Check the entry HIKHSMMFGTYTK : does amyloid nucleation score equal or exceed -0.3?
0 (no)

Could you verify whether the entry RMVGYVRGMAFRRSVSRRIG shows amyloid nucleation score of no less than -0.3?
1 (yes)

Given the entry HGVLCSWSRLKTRFDQNGIS , answer whether its amyloid nucleation score meets or surpasses -0.3.
1 (yes)

Could you verify whether the entry CKMWTE shows amyloid nucleation score of no less than -0.3?
1 (yes)

Decide: is the reported value of amyloid nucleation score for WSKCNVRMCWH equal to or greater than -0.3?
1 (yes)

Identify whether the reported amyloid nucleation score of the following substance is -0.3 or greater: PSYLCYVIPPPCINLVPMYP
1 (yes)

# check: amyloid nucleation score of LYANNMLSGILCNGFSTITS is greater than or equal to -0.3
0 (no)

State whether the measured amyloid nucleation score reaches -0.3, counting equality as reaching it, for FGAVVADGMKLFSVSFS
0 (no)

Answer whether amyloid nucleation score of LFLCRILYCLWVNVFLLGHE is greater than or equal to -0.3.
1 (yes)

Given the entry KNYLLSLGVCNFQSYPHKCW , answer whether its amyloid nucleation score meets or surpasses -0.3.
1 (yes)

Check this substance for amyloid nucleation score at or above -0.3: VNFYDRAYRIWCCRNASE
1 (yes)

Evaluate LHRNSTPFIWHRRIEVSLGN : amyloid nucleation score at minimum -0.3?
1 (yes)

Determine whether measured amyloid nucleation score meets or exceeds -0.3 for LTCMLVRRFGNFIDDSYARA
0 (no)

Hello, I need to know if VCGRGKGDD has measured amyloid nucleation score not below -0.3. Thanks!
1 (yes)

Record FMSEDESYVCYRWGWYDRIF ; criterion: amyloid nucleation score no lower than -0.3. Met?
0 (no)

Check this substance for amyloid nucleation score at or above -0.3: LMSWEL
1 (yes)

Does the reported amyloid nucleation score for PRGVFYCLCYLVTCLAEFYE fall at or above the -0.3 mark?
0 (no)

Evaluate CLGDTWWNMNKSGTEVVCPV : amyloid nucleation score at minimum -0.3?
1 (yes)

State whether the measured amyloid nucleation score reaches -0.3, counting equality as reaching it, for KLAIYFILAACSRNVVED
1 (yes)

Is amyloid nucleation score at least -0.3? Consider LSERYVSTGVARDSGNAKVG
1 (yes)

Has VIQHIYAKDSNCSHLV a recorded amyloid nucleation score greater than or equal to -0.3?
0 (no)

Please check the record IVLMLCV and state if its amyloid nucleation score is at or above -0.3.
1 (yes)

Answer whether amyloid nucleation score of CVVFAVKGCAGGWTRFMLDN is greater than or equal to -0.3.
1 (yes)

# bool: amyloid nucleation score of SGVINTAAMIRTDPWRVLDG >= -0.3
1 (yes)

Is amyloid nucleation score at least -0.3? Consider LAITDKPNANARRPPTPVLY
1 (yes)

State whether the measured amyloid nucleation score reaches -0.3, counting equality as reaching it, for MRLMVGYRRCFASLVKNVCT
0 (no)

Kindly determine if amyloid nucleation score recorded for TYCMYDYRKAVGEGWQFR is above or exactly -0.3.
1 (yes)

// inclusive: amyloid nucleation score at least -0.3? input: GKSMYCYK
0 (no)

For this substance, is measured amyloid nucleation score -0.3 or higher? LYASASADHSRQRREGTPVL
0 (no)

Kindly determine if amyloid nucleation score recorded for GVHRWVRSARLEAVHFGAGW is above or exactly -0.3.
1 (yes)

For this substance, is measured amyloid nucleation score -0.3 or higher? VTRVLLVKWPYNTVETCGGA
0 (no)

Has LCLRVEGGNKPTEHCITSPT a recorded amyloid nucleation score greater than or equal to -0.3?
1 (yes)

Form field: amyloid nucleation score at least -0.3? Entry: TLLNGFFATSYCGCFFGSRT
1 (yes)

amyloid nucleation score >= -0.3 for LLIGWASEDHRYKGISNGGG ?
1 (yes)

Evaluate DIVRWLCPHRTK : amyloid nucleation score at minimum -0.3?
1 (yes)

Confirm if amyloid nucleation score reported for the substance FVFHVGDDARGSCHKCRLWN is -0.3 or above.
1 (yes)

Quick check: does FNYYSA have amyloid nucleation score greater than or equal to -0.3?
1 (yes)

Check if amyloid nucleation score >= -0.3 (inclusive). Item: MCGNDWVYGDWIRSEIHGSS
0 (no)

Reported amyloid nucleation score reaches at least -0.3 for SSKMNILP ?
1 (yes)

For this substance, is measured amyloid nucleation score -0.3 or higher? TGNHSEVTT
1 (yes)

Is it the case that RLVSFKCFCFLFLIDFMQGV has amyloid nucleation score reaching or exceeding -0.3?
1 (yes)

Reported amyloid nucleation score reaches at least -0.3 for VELSRASNLCQDNIREHMQV ?
0 (no)

I'd appreciate it if you could say whether LYMYSLSFLMGGNANHRLGM has amyloid nucleation score at least equal to -0.3.
1 (yes)

Does FVHPLMYSDS have a reported amyloid nucleation score of at least -0.3?
0 (no)

Tell me whether amyloid nucleation score is at least -0.3 here: LPWLPLKSRYALTAKFTCEP
1 (yes)

Please indicate if the recorded amyloid nucleation score for AHPSNSYGRNNGVLASHRWD meets or exceeds -0.3.
0 (no)

Answer whether amyloid nucleation score of RDWTRGHACRYCSWQWVARG is greater than or equal to -0.3.
1 (yes)

Is reported amyloid nucleation score greater than or equal to -0.3 here: THGVSWQLVRDAILNGGPKR
0 (no)

For this substance, is measured amyloid nucleation score -0.3 or higher? NDEQAVQFNIGETGVSYCFL
1 (yes)

Evaluate FACSFQSNLLDKKYTSLVNL : amyloid nucleation score at minimum -0.3?
1 (yes)

Tell me whether amyloid nucleation score is at least -0.3 here: WCVFAFMKSQQCK
1 (yes)

Hello, I need to know if PALLEIQWSSCGV has measured amyloid nucleation score not below -0.3. Thanks!
1 (yes)

Can NNMLILFTCGFYYKVYSPVQ be said to have amyloid nucleation score at or above -0.3?
1 (yes)

Check if amyloid nucleation score >= -0.3 (inclusive). Item: IYSARFIGVRPNYYCMDARP
0 (no)

Is amyloid nucleation score for FTVSLTSLYYISITGLLARR at or above -0.3?
1 (yes)

# bool: amyloid nucleation score of SRVVFTSM >= -0.3
0 (no)
